Reference for the values: PubChem BioAssay (NCI)

For each record, write down the corresponding growth inhibition.
EXPERIMENTAL DETAILS: NCI Yeast Anticancer Drug Screen. Data for the bub3 strain (AID 167)
MEASUREMENT SETUP: S. cerevisiae bub3 mutant strain, at 50.0 µM, stronger effect = higher value
The panel holds about 79,000 compounds, 15% with a hit somewhere; the sample as a whole holds those more often.
The answer is to be given in %; state only the numeric part.

Exercise: Value lookup for growth inhibition; key = CC(O)CN(CCN(CC(C)O)CC(C)O)CC(C)O.O=[N+]([O-])O.[Cu+2] (configuration not stated)
Solution: -29.6

Exercise: // lookup growth inhibition for CN1CC=C(c2cccn2C)CC1
Solution: -10.4

Exercise: Which growth inhibition reading was recorded for the compound CC(C)(C)[SH+]CC[SH+]C(C)(C)C.[C-]#[O+].[C-]#[O+].[C-]#[O+].[C-]#[O+].[Cr] ?
Solution: 3.65

Exercise: # input compound: COc1ccccc1C(Cc1ccc(N2C(N)=NC(N)=NC2(C)C)cc1)C(=O)Nc1ccc(S(=O)(=O)F)cc1 (configuration not stated) ; wanted: its growth inhibition
Solution: 98.8

Exercise: Data request, read-out growth inhibition, for C#CCOC(C(=O)OC1CCN(C)CC1)(c1ccccc1)c1ccccc1
Solution: 0.3

Exercise: What value of measured growth inhibition is listed for COC1=C(Cl)C(=O)c2ccccc2C1=O ?
Solution: 99.2

Exercise: Give its growth inhibition value. Item: CC(C)CC[CH2][Pb]([CH2]CCC(C)C)([CH2]CCC(C)C)[O]C(=O)C(Cl)(Cl)Cl
Solution: 99

Exercise: Entry CN(C)P(=O)(N(C)C)N1CCCCCC1 : reported growth inhibition = ?
Solution: 3.4

Exercise: # lookup: growth inhibition of CC(C(=O)O)C(Br)C(=O)O (configuration not stated)
Solution: 5.85

Exercise: What value of growth inhibition has been reported for the following compound? C=C(C)CCP(=S)(OCC)OCC
Solution: 5.45

Exercise: Tell me the measured growth inhibition of N.N.N.N.O=C([O-])C(=O)O.O=C([O-])C(=O)[O-].[Co+3] , please.
Solution: 11.9

Exercise: Requested field: growth inhibition. Item: CCOC(=O)c1ccc(N=Cc2ccc(N(CCCl)CCCl)cc2C)cc1
Solution: 17.2

Exercise: Dear colleague, I am looking for the recorded growth inhibition of the following compound: CCC[CH2][Sn]([I])([CH2]I)[CH2]CCC
Solution: 98.8

Exercise: Value lookup for growth inhibition; key = CCOC(=O)C1C(=O)C(C(=O)OCC)C2c3ccccc3-c3ccccc3C1N2C (configuration not stated)
Solution: 8.7

Exercise: Reported growth inhibition for NC(=O)/C=C/C(=O)O : what is it?
Solution: 11

Exercise: Could you tell me which growth inhibition is on file for Cc1cc(N(CCCl)CCCl)ccc1C1N(Cc2ccc(Cl)cc2Cl)CCCN1Cc1ccc(Cl)cc1Cl ?
Solution: 16.1

Exercise: Tell me the measured growth inhibition of CCOC(=O)C1C2(C)NC(=O)C1(Cc1ccccc1)c1ccc(O)cc1O2 (configuration not stated) , please.
Solution: 2.5

Exercise: // returns reported growth inhibition for input C#C[C@]1(O)CC[C@H]2[C@@H]3CCC4=C/C(=N/OC(=O)c5cccc6c(=O)c7ccccc7[nH]c56)CCC4[C@H]3CC[C@@]21CC (some centres not stated)
Solution: -29.1

Exercise: Requested field: growth inhibition. Item: COc1cc(C(CN)N(C)C)cc(OC)c1OC (configuration not stated)
Solution: -0.9

Exercise: Looking for the measured growth inhibition of N#CN1CC(C(=O)N2CCCCC2)C=C2c3cccc4[nH]cc(c34)CC21 (configuration not stated) , can you help?
Solution: 8.95

Exercise: Return reported growth inhibition; argument: CCCCCCC(=O)[O][Hg][c]1ccccc1
Solution: 99.4

Exercise: Tell me the measured growth inhibition of CN(C)CCBr , please.
Solution: 55.6

Exercise: Quick one: growth inhibition for CC(=O)C(CN1CCOCC1)C(c1ccccc1)c1c(O)c2ccccc2oc1=O (configuration not stated) ?
Solution: 21.9

Exercise: Which growth inhibition reading was recorded for the compound O=C(O)c1cc(I)cc(I)c1I ?
Solution: 1.25

Exercise: So what does the record say about growth inhibition for CCN1C2CCC1CC(=O)C2 ?
Solution: -14.2

Exercise: // query growth inhibition value for entry O=c1s[se]c2ccccc12
Solution: 89.8

Exercise: Fill in: growth inhibition of O=C1OCC2CC3C4C=CC(C4)C3C12 (configuration not stated) is ___
Solution: 99.4

Exercise: What value of measured growth inhibition is listed for CN(C)CC1(N)C(=O)NC(=O)NC1=O ?
Solution: 95.2

Exercise: Given the compound O=C1C(C(Nc2ccccc2)c2ccccc2)=C([O-])c2ccccc21.O=C1C(C(Nc2ccccc2)c2ccccc2)=C([O-])c2ccccc21.[Cu+2] (configuration not stated) , what is its reported growth inhibition?
Solution: 4.75

Exercise: Looking for the measured growth inhibition of CCOc1ccc2c(N/N=C/c3ccc(N(CCCl)CCCl)cc3)cc(C)nc2c1 , can you help?
Solution: 95.7

Exercise: Reported growth inhibition for O=C(NC1CC1)c1c(O)[nH]c(=S)[nH]c1=O : what is it?
Solution: -6.15

Exercise: What value of growth inhibition has been reported for the following compound? CC(=O)C(C(C)=O)C(C)=O.CC(=O)C(C(C)=O)C(C)=O.CC(=O)C(C(C)=O)C(C)=O.[Cr]
Solution: -3.6
